test system: TLR3; assay: TLR3 ISRE luciferase reporter assay in 293T/TLR3 cells; assay type: cell-based, human; conditions: 293T/TLR3 cells, reovirus genomic RNA 2 µg/ml, peptides 2 µM, ISRE luciferase reporter
Here, each record is paired with measured Fold induction above Reovirus dsRNA (293T/TLR3 reporter) data.
readout-name: Fold induction above Reovirus dsRNA (293T/TLR3 reporter)

# ordered-residues, reported
data = [
    ("YGRKKRRQRRR [Tat47-57, Tat peptide that is rich in basic residues; cell-penetrating peptide]", "1.3±0.19 (3) fold"),
    ("RQIKIWFQNRRMKWKK [Penetrin, peptide derived from the protein antennapedia; cell-penetrating peptide]", "1.1±0.05 (4) fold"),
    ("TSAQSSAAASSNSACCPGCCS [T3Ser, variant of the peptide T3 that had the arginines substituted with serines]", "1 fold"),
    ("TRAQRRAAARRNRACCPGCCS [T3, peptide derived from the Brome mosaic virus (BMV) capsid]", "1.3±0.08 (4) fold"),
    ("TRAQRRAAARGGGVVIAC [Peptide 3]", "1 fold"),
    ("TRAQRRAAARGVQIVYKC [T4, peptide derived from the Brome mosaic virus (BMV) capsid]", "1 fold"),
    ("NAKTRRHERRRKLAIER [P22N(14-30), arginine-containing peptide]", "1.3±0.14 (4) fold"),
    ("LLGNFFRKSKQKIGKQFKRIVQRIKNFFRNLVPRTQS [Sc37]", "1.0±0.03 (9) fold"),
    ("RRRRRRRRR [Arg(9), cell-penetrating peptide of nine arginines]", "1.5±0.17 (4) fold"),
]
